Attribution: patent US4199573A

For reference, MIC measured on S. typhimurium:
Response body: numeric value in µg/mL, unit text excluded.

Example entries and their recorded answers appear below.
>  <molecule>
CC(C)CS(=O)(=O)N1N=Cc2ccccc2B1O [drawing 4]

>  <testedOn>
S. typhimurium

>  <MIC (µg/mL)>
4

$$$$
>  <molecule>
O=S(=O)(CCCCl)N1N=Cc2cc(F)ccc2B1O [CH2CH2CH2 Cl, F]

>  <testedOn>
S. typhimurium

>  <MIC (µg/mL)>
4

$$$$
>  <molecule>
CCCS(=O)(=O)N1N=Cc2ccccc2B1O [Compound 2]

>  <testedOn>
S. typhimurium

>  <MIC (µg/mL)>
16

$$$$
>  <molecule>
CCCS(=O)(=O)N1N=Cc2cc(CC)ccc2B1O [CH2CH2CH3, C2 H5]

>  <testedOn>
S. typhimurium

>  <MIC (µg/mL)>
2

$$$$
>  <molecule>
CCCCCS(=O)(=O)N1N=Cc2ccccc2B1O [(CH2)4CH3, H]

>  <testedOn>
S. typhimurium

>  <MIC (µg/mL)>
16

$$$$
>  <molecule>
Cc1ccc2c(c1)C=NN(S(=O)(=O)CC(C)C)B2O

>  <testedOn>
S. typhimurium

>  <MIC (µg/mL)>
8

$$$$
>  <molecule>
CCc1ccc2c(c1)C=NN(S(=O)(=O)CCCCl)B2O [CH2CH2CH2Cl, C2 H5]

>  <testedOn>
S. typhimurium

>  <MIC (µg/mL)>
2

$$$$
>  <molecule>
CCCS(=O)(=O)N1N=Cc2cc(F)ccc2B1O [Compound 11]

>  <testedOn>
S. typhimurium

>  <MIC (µg/mL)>
8

$$$$

-- ask Entry Cc1ccc2c(c1)C=NN(S(=O)(=O)CCCCl)B2O [Compound 10] : reported MIC = ?
-- reply 1
